Give measured MCC for each item. Keep answers brief.
Assay: Test 3: cytotoxicity, Vero cells
Type: cell-based, green monkey
Conditions: monkey, Table 4, read-out: Minimum cytotoxic concentration (MCC)

[
  {
    "compound": "COC(=O)C(O)Cn1cnc2c(N)ncnc21 (racemic) [Compound 1]",
    "measuredEndpoint": "MCC",
    "reading": "> 400 µg/mL"
  },
  {
    "compound": "CC(C)COC(=O)C(O)Cn1cnc2c(N)ncnc21 (racemic) [Compound 7]",
    "measuredEndpoint": "MCC",
    "reading": "> 400 µg/mL"
  },
  {
    "compound": "CCOC(=O)C(O)Cn1cnc2c(N)ncnc21 (racemic) [Compound 2]",
    "measuredEndpoint": "MCC",
    "reading": "> 400 µg/mL"
  }
]

I'm hoping you can list MCC for every compound here, please.
1. CC(C)CCOC(=O)C(O)Cn1cnc2c(N)ncnc21 (racemic) [Compound 8]
2. CCCCOC(=O)C(O)Cn1cnc2c(N)ncnc21 (racemic) [Compound 5]

a:
1. 400 µg/mL
2. 200 µg/mL

----------
Experiment: Test 3: cytotoxicity, HeLa cells
Type: cell-based
Details: human, Table 4, read-out: Minimum cytotoxic concentration (MCC)
measuredEndpoint: MCC

[
  {
    "compound": "Nc1ncnc2c1ncn2C[C@H](O)CO [(S)--DHPA, 9-(2,3-dihydroxypropyl)adenine, reference compound]",
    "MCC": "> 400 µg/mL"
  },
  {
    "compound": "CCCCCCCCOC(=O)C(O)Cn1cnc2c(N)ncnc21 (racemic)",
    "MCC": "100 µg/mL"
  },
  {
    "compound": "Nc1ncnc2c1ncn2CC(O)CO (racemic) [(RS)--DHPA, 9-(2,3-dihydroxypropyl)adenine, reference compound]",
    "MCC": "> 400 µg/mL"
  },
  {
    "compound": "CC(C)COC(=O)C(O)Cn1cnc2c(N)ncnc21 (racemic)",
    "MCC": "> 400 µg/mL"
  }
]

I'm hoping you can list MCC for every compound here, please.
1. CCC(C)OC(=O)C(O)Cn1cnc2c(N)ncnc21 (racemic)
2. COCCOC(=O)C(O)Cn1cnc2c(N)ncnc21 (racemic)
3. COC(=O)C(O)Cn1cnc2c(N)ncnc21 (racemic)
4. CC(C)OC(=O)C(O)Cn1cnc2c(N)ncnc21 (racemic)

a:
1. > 400 µg/mL
2. > 400 µg/mL
3. > 400 µg/mL
4. > 400 µg/mL

----------
Tested on: Reo virus-1
Experiment: Test 2: antiviral activity, reo virus-1 in Vero cells
Format: cell-based
Details: Reo virus-1, Vero cells; Table 3
Give measured EC50 for each item. Keep answers brief.
Don't forget the unit after the value.

[
  {
    "compound": "CC(C)CCOC(=O)C(O)Cn1cnc2c(N)ncnc21 (racemic)",
    "reading": "30 µg/mL"
  },
  {
    "compound": "COCCOC(=O)C(O)Cn1cnc2c(N)ncnc21 (racemic)",
    "reading": "70 µg/mL"
  },
  {
    "compound": "CCCCOC(=O)C(O)Cn1cnc2c(N)ncnc21 (racemic)",
    "reading": "150 µg/mL"
  },
  {
    "compound": "COC(=O)C(O)Cn1cnc2c(N)ncnc21 (racemic)",
    "reading": "200 µg/mL"
  },
  {
    "compound": "CCC(C)OC(=O)C(O)Cn1cnc2c(N)ncnc21 (racemic)",
    "reading": "70 µg/mL"
  }
]

I'm hoping you can list EC50 for every compound here, please.
1. Nc1ncnc2c1ncn2CC(O)CO (racemic) [(RS)--DHPA, 9-(2,3-dihydroxypropyl)adenine, reference compound]
2. Nc1ncnc2c1ncn2C[C@H](O)CO [(S)--DHPA, 9-(2,3-dihydroxypropyl)adenine, reference compound]
3. CCCCCCCCOC(=O)C(O)Cn1cnc2c(N)ncnc21 (racemic)
4. CC(C)OC(=O)C(O)Cn1cnc2c(N)ncnc21 (racemic)
5. Nc1ncnc2c1ncn2CC(O)C(=O)OC1CCCCC1 (racemic)
6. CCCOC(=O)C(O)Cn1cnc2c(N)ncnc21 (racemic)

a:
1. 100 µg/mL
2. 200 µg/mL
3. 7 µg/mL
4. 40 µg/mL
5. 7 µg/mL
6. 200 µg/mL

I'm hoping you can list EC50 for every compound here, please.
1. CCOC(=O)C(O)Cn1cnc2c(N)ncnc21 (racemic)
2. CC(C)COC(=O)C(O)Cn1cnc2c(N)ncnc21 (racemic)

a:
1: 40 µg/mL; 2: 150 µg/mL

Origin of the recorded values: patent US4605658A
